The measured values listed here are drawn from a melting point compilation (Tetko et al.; mined from patent text by program, amines drawn as free bases though some values may be those of a salt).

Experimental readout: melting point

- Compound: "CC(=O)Oc1ccc2c(c1)CCC1C3CCC(=O)C3(C)CC(O)C21O (stereo not given)"
  Readout value: "199 to 201 °C"
- Compound: "O=C(Nc1cc(Cl)ccc1S(=O)(=O)c1ccccc1)N[C@@H](Cc1ccc(NC(=O)c2c(Cl)cccc2Cl)cc1)C(=O)O"
  Readout value: "242 °C"
- Compound: "COc1ccc2cc(-c3cc4c(cc3[N+](=O)[O-])OCO4)ccc2c1"
  Readout value: "165 to 167 °C"
- Compound: "O=C(CCCCCCOc1ccc2c(c1)[nH]c1ccccc12)NO"
  Readout value: "198 °C"
- Compound: "COC(=O)c1cc2ccc(N3CCOCC3)cc2c2c1C=CC(c1ccc(OC)cc1)(c1ccc(OC)cc1)O2"
  Readout value: "154 to 155 °C"
